B1: H2-Kb / B10 (parent)
chain 1: GQQVQQSPASLVLQEGENAELQCNFSSTATRLQWFYQRPGGSLVSLLSNPSGTKHTGRLTSTTVTKERRGSLHISSSQITDSGTYLCAPGGSNAKLTFGKGTKLSVKS
chain 2: DPKIIQKPKYLVAVTGSEKILICEQYLGHNAMYWYRQSAKKPLEFMFSYSYQKLMDNQTASSRFQPQSSKKNHLDLQITALKPDDSATYFCASSLRGGNNQAPLFGEGTRLSVL
chain 3: not shown
chain 4: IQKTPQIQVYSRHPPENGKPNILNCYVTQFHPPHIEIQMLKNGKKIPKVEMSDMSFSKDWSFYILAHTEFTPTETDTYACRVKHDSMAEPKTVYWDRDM
chain 5: SIINFEKL

Variants of: B1
Experiment: % of reporter cells activated (NFAT-GFP), raw; also: test concentration or dose not given here
Conditions: with B10; scale: % of reporter cells activated
Measured Parameter: ratio to parent

a: chain 5 K7F
b: chain 5 F5D
c: chain 5 I3E
In: With the 3 variants above, produce a list ordered by ascending ratio to parent. Answer format: the labels, ordered as requested.
Out: c, a, b

1: chain 5 S1M
2: chain 5 S1Y
In: Identify the entry with the larger ratio to parent. Options: 1 and 2 Label of pick, please.
Out: 1

P: chain 5 L8R
Q: chain 5 S1A
In: When P and Q are compared, which has the higher number for ratio to parent? To answer, give the label that identifies your chosen option.
Out: P

These data points were gathered from paper PMC11480844.
